Tested on: Enterobacterales expressing class C cephalosporinases
Conditions: E. aerogenes 110099 (AmpC, SHV-12)
measurement.label: MIC (µg/mL)
One number for each entry, in µg/mL.

* C[C@@H](O)[C@H]1C(=O)N2C(C(=O)O)=C(SC3CN(C4=NCCS4)C3)[C@H](C)[C@H]12 | 0.12
* C[C@@H](O)[C@H]1C(=O)N2C(C(=O)O)=C(S[C@H]3CC[S@@+]([O-])C3)S[C@H]12 | 0.06

In: Give MIC for `Nc1nc(/C(=C/CC(=O)O)C(=O)N[C@@H]2C(=O)N3C(C(=O)O)=CCS[C@H]23)cs1`
Out: 32

###

System: Enterobacterales expressing class D oxacillinases (OXA-48/48-like)
Assay: organism not typed
Type: cell-based, E. coli, K. pneumoniae
Settings: K. pneumoniae SI-C17 (OXA-48)
measurement.label: MIC (µg/mL)
Numbers only, in µg/mL.

- C[C@@H](O)[C@H]1C(=O)N2C(C(=O)O)=C(S[C@H]3CC[S@@+]([O-])C3)S[C@H]12 [Sulopenem]: 16

Now look at this entry.
In: Return reported MIC. Input compound: C[C@@H](O)[C@H]1C(=O)N2C(C(=O)O)=C(SC3CN(C4=NCCS4)C3)[C@H](C)[C@H]12 [Tebipenem]
Out: 16

###

Target: KPC-2 (Klebsiella pneumoniae, UniProt Q9F663)
measurement.label: pKi
Give bare numbers, as −log10 of the molar value.

In: Report pKi for CCC(=O)N[C@H]1Cc2cccc(C(=O)O)c2OB1O [VNRX-5236]
Out: 6.96

###

System: Enterobacterales expressing class D oxacillinases (OXA-48/48-like)
Test: organism not typed
Format: cell-based, E. coli, K. pneumoniae
Details: K. pneumoniae 515746 (OXA-48), second line
For each of the compounds below, state its MIC.
One number for each entry, in µg/mL.

Guide cases for MIC, answers given:
- C[C@@H](O)[C@H]1C(=O)N2C(C(=O)O)=C(S[C@H]3CC[S@@+]([O-])C3)S[C@H]12: 4
- C[C@@H](O)[C@H]1C(=O)N2C(C(=O)O)=C(SC3CN(C4=NCCS4)C3)[C@H](C)[C@H]12: 0.5

In: Report MIC, nothing else, for this compound: `Nc1nc(/C(=C/CC(=O)O)C(=O)N[C@@H]2C(=O)N3C(C(=O)O)=CCS[C@H]23)cs1`
Out: 16

###

Kindly supply the reported MIC values for the records listed here.
System: Enterobacterales expressing class C cephalosporinases
Conditions: E. aerogenes 111707 (AmpC, TEM-1)
Give bare numbers, in µg/mL.

- Nc1nc(/C(=C/CC(=O)O)C(=O)N[C@@H]2C(=O)N3C(C(=O)O)=CCS[C@H]23)cs1: 2
- C[C@@H](O)[C@H]1C(=O)N2C(C(=O)O)=C(SC3CN(C4=NCCS4)C3)[C@H](C)[C@H]12: 0.03

Lab note: next molecule to report on.
In: Please look at this molecule and report its MIC: `C[C@@H](O)[C@H]1C(=O)N2C(C(=O)O)=C(S[C@H]3CC[S@@+]([O-])C3)S[C@H]12`
Out: 0.12
